Collected IC50 values appear next to each entry.
# System: SW-1736
# ASSAY: Cytotoxicity against human SW1736 cells after 96 hrs by sulforhodamine B assay
# Assay type: functional, cell-based
Quick note: give the figure in µmol, leave out the unit.

COC(=O)[C@@]1(C)CC[C@]2(C)CC[C@]3(C)C(=CC(=O)[C@@H]4[C@@]5(C)CC[C@H](O)C(C)(C)[C@@H]5CC[C@]43C)[C@@H]2C1 : 34.87

Write down the reported IC50 of COC(=O)[C@@]1(C)CC[C@]2(C)CC[C@]3(C)C(=CC(=O)[C@@H]4[C@@]5(C)CC[C@H](OC(=O)CNCCCCCCCCCN)C(C)(C)[C@@H]5CC[C@]43C)[C@@H]2C1 , test system: SW-1736.
3.3

Write down the reported IC50 of COC(=O)[C@@]1(C)CC[C@]2(C)CC[C@]3(C)C(=CC(=O)[C@@H]4[C@@]5(C)CC[C@H](OC(=O)CNCCCCCCCCCCN)C(C)(C)[C@@H]5CC[C@]43C)[C@@H]2C1 , test system: SW-1736.
3.73

Write down the reported IC50 of COC(=O)[C@@]1(C)CC[C@]2(C)CC[C@]3(C)C(=CC(=O)[C@@H]4[C@@]5(C)CC[C@H](OC(=O)CCl)C(C)(C)[C@@H]5CC[C@]43C)[C@@H]2C1 , test system: SW-1736.
3.14

Write down the reported IC50 of CC1(C)[C@@H](OC(=O)CCl)CC[C@]2(C)[C@H]3C(=O)C=C4[C@@H]5C[C@@](C)(C(=O)O)CC[C@]5(C)CC[C@@]4(C)[C@]3(C)CC[C@@H]12 , test system: SW-1736.
16.42

Write down the reported IC50 of COC(=O)[C@@]1(C)CC[C@]2(C)CC[C@]3(C)C(=CC(=O)[C@@H]4[C@@]5(C)CC[C@H](OC(=O)CNCCCN)C(C)(C)[C@@H]5CC[C@]43C)[C@@H]2C1 , test system: SW-1736.
6.05

Write down the reported IC50 of COC(=O)[C@@]1(C)CC[C@]2(C)CC[C@]3(C)C(=CC(=O)[C@@H]4[C@@]5(C)CC[C@H](OC(=O)CNCCCCCN)C(C)(C)[C@@H]5CC[C@]43C)[C@@H]2C1 , test system: SW-1736.
2.69

---

# ASSAY: Cytotoxicity against human A253 cells after 96 hrs by sulforhodamine B assay
# Format: functional, cell-based
METRIC: log10(IC50) (log10 of the value in µmol)
Plainly stated, the numbers are log10 of IC50 given in µmol.

Here are 5 compounds together with their reported answers.
CC1(C)[C@@H](O)CC[C@]2(C)[C@H]3C(=O)C=C4[C@@H]5C[C@@](C)(C(=O)O)CC[C@]5(C)CC[C@@]4(C)[C@]3(C)CC[C@@H]12 [ENOXOLONE] : 1.91
CC1(C)[C@@H](OC(=O)CCl)CC[C@]2(C)[C@H]3C(=O)C=C4[C@@H]5C[C@@](C)(C(=O)O)CC[C@]5(C)CC[C@@]4(C)[C@]3(C)CC[C@@H]12 : 1.41
COC(=O)[C@@]1(C)CC[C@]2(C)CC[C@]3(C)C(=CC(=O)[C@@H]4[C@@]5(C)CC[C@H](OC(=O)CNCCCN)C(C)(C)[C@@H]5CC[C@]43C)[C@@H]2C1 : 0.56
COC(=O)[C@@]1(C)CC[C@]2(C)CC[C@]3(C)C(=CC(=O)[C@@H]4[C@@]5(C)CC[C@H](O)C(C)(C)[C@@H]5CC[C@]43C)[C@@H]2C1 : 1.29
COC(=O)[C@@]1(C)CC[C@]2(C)CC[C@]3(C)C(=CC(=O)[C@@H]4[C@@]5(C)CC[C@H](OC(=O)CNCCCCCCCCCN)C(C)(C)[C@@H]5CC[C@]43C)[C@@H]2C1 : 0.67

# query: log10(IC50) of entry COC(=O)[C@@]1(C)CC[C@]2(C)CC[C@]3(C)C(=CC(=O)[C@@H]4[C@@]5(C)CC[C@H](OC(=O)CNCCCCCN)C(C)(C)[C@@H]5CC[C@]43C)[C@@H]2C1
0.36

# query: log10(IC50) of entry COC(=O)[C@@]1(C)CC[C@]2(C)CC[C@]3(C)C(=CC(=O)[C@@H]4[C@@]5(C)CC[C@H](OC(=O)CNCCCCCCN)C(C)(C)[C@@H]5CC[C@]43C)[C@@H]2C1
0.05

Values compiled from ChEMBL document CHEMBL1629466.
